- Tested on: Aspergillus fumigatus
- assayText: Antifungal activity against Aspergillus fumigatus
- Assay type: functional
endpointName: MIC (µg/mL)
Reply with just the number (in µg/mL).

Q: Item under review: `Cc1cccc(B2OCc3cc(F)ccc32)c1` . Reported MIC?
Result: 0.5

Q: Another: `Fc1ccc2c(c1)COB2c1ccoc1`
Result: 4

Q: Note, next up: `Fc1ccc2c(c1)COB2c1ccsc1`
Result: 1

Q: Field entry: `Fc1cccc(B2OCc3cc(F)ccc32)c1`
Result: 1

Q: Also, `OB1OCc2c(F)cccc21` please.
Result: 32

Q: Same again, this time with `Fc1ccc2c(c1)COB2c1cccnc1`
Result: 16

Q: Also `C(=C\c1ccccc1)/B1OCc2ccccc21` ?
Result: 4

Q: Would you mind doing `C=CB1OCc2cc(F)ccc21` as well?
Result: 2

Q: What about `Cc1cscc1B1OCc2cc(F)ccc21` ?
Result: 1

Q: What do we get for `OB1OCc2cc(Cl)ccc21` ?
Result: 1

Q: How about `c1ccc(B2OCCc3ccccc32)cc1` ?
Result: 16

Q: What about `OB1OCc2cc(C(F)(F)F)ccc21` ?
Result: 8

Q: And `Cc1cc(C2CCCCC2)n(O)c(=O)c1` ?
Result: 1

Q: Now the compound `Fc1ccc(B2OCc3ccccc32)cc1`
Result: 2

====

- System: Trichophyton rubrum
- assayText: Antifungal activity against Trichophyton rubrum
- Type: functional
endpointName: log10 MIC (log10 of the value in µg/mL)
Lab note - MIC converted to log10 from values in µg/mL.

Q: Returns the measured log10 MIC for the input molecule. Input: `Fc1ccc2c(c1)COB2c1ccoc1`
Result: 0.60

Q: Moving on to `Cc1cccc(B2OCc3cc(F)ccc32)c1`
Result: 0.30

Q: And `Fc1ccc2c(c1)COB2c1ccccc1` ?
Result: 0.00

Q: Repeat with `OB1OCCc2cc(F)ccc21`
Result: 1.51

Q: Same for `OB1OCc2ccc(F)cc21`
Result: 1.20

Q: How about this molecule: `Cc1ccc(B2OCc3cc(F)ccc32)cc1`
Result: 0.30

Q: Please give the result for `Fc1ccc2c(c1)COB2c1cccnc1` too.
Result: 1.20

Q: Thanks! And `OB1OCc2cc(F)ccc21` ?
Result: 0.00

Q: Let us now turn to `Cc1cc(C2CCCCC2)n(O)c(=O)c1`
Result: -0.30

Q: Can you check `Fc1cccc(B2OCc3ccccc32)c1` next?
Result: 0.90

Q: And the next one, `c1ccc(B2OCc3ccccc32)cc1` ?
Result: 0.60

====

I'd appreciate it if you could supply MIC values for the items below.
- System: Trichophyton rubrum
- assayText: Antifungal activity against Trichophyton rubrum
- Assay type: functional
Number only, in µg/mL; omit the unit.

Q: Trichophyton rubrum / MIC / `C=CB1OCc2cc(F)ccc21` : value?
Result: 4

Q: Then what about the molecule `C(=C\c1ccccc1)/B1OCc2ccccc21` ?
Result: 8

Q: Let us now turn to `OB1OCc2cccc(F)c21`
Result: 16

Q: Another molecule to look at: `c1ccc(B2OCCc3ccccc32)cc1`
Result: 8

Q: For `Clc1cccc(B2OCc3ccccc32)c1` then?
Result: 16

Q: Lookup `OB1OCc2ccc3ccccc3c21`
Result: 4

Q: Query `OCc1ccc2c(c1)COB2O` next
Result: 64
